Source listed as patent US20030144346A1.

Biological target: type 2 human 5α-reductase (HRED2) (Homo sapiens, UniProt P31213)
Sequence (P31213 1-254): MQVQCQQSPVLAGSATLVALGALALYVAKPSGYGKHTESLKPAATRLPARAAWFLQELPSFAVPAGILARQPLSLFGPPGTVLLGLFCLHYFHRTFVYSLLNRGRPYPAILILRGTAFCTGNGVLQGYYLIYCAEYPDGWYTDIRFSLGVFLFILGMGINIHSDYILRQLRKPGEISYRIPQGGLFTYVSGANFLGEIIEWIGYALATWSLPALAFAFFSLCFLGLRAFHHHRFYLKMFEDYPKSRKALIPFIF
Assay: Whole cell assay of 5α-reductase, type 2 isoenzyme;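 note: intact rat 1A cells genetically modified to carry human type 2 5α-reductase served as the enzyme source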
Type: cell-based
Design: expressed in transfected cells; host or cells: rat 1A cells infected with pMV7 retrovirus
Settings: Table 7, read-out: HCRED2 IC50
pIC50 by entry:
Remember the convention: pIC50 equals -log10 of concentration in molar.

Request: Given CCCCCCCCCCCCCCCCCC(=O)OC1Cc2c(O)cc(O)cc2OC1c1cc(O)c(O)c(O)c1 (stereo not drawn) , respond with its pIC50.
Result: 4.13

Request: Retrieve pIC50 measured for CCCCC=CCCCCCCCC(=O)OC1Cc2c(O)cc(O)cc2OC1c1cc(O)c(O)c(O)c1 (stereo not drawn) and print it.
Result: 5.10

Request: State its pIC50: Cc1cc2c(C(C)C)c(O)c(O)c(C=O)c2c(O)c1-c1c(C)cc2c(C(C)C)c(O)c(O)c(C=O)c2c1O
Result: 5.22

More entries:
Request: Using the record for CCCCCC#CCC#CCC#CCC#CCCCC(=O)O , state its measured pIC50.
Result: 5.70

Request: Look up and state reported pIC50 for COc1ccc(-c2coc3cc(O)cc(O)c3c2=O)cc1
Result: 5.30

Request: Identify measured pIC50 associated with CCCCC/C=C\C/C=C\C/C=C\CCCCC(=O)O [Gamma-Linolenic Acid, Gamma-Linolenic Acid C18:3 CIS 6.9,12]
Result: 4.70

Request: For the compound CCCCCCCCOC(=O)c1cc(O)c(O)c(O)c1 [Octyl Gallate] , give its reported pIC50.
Result: 4.74

Request: Answer with the recorded pIC50 of CCCCCCCCCCCCOC(=O)c1cc(O)c(O)c(O)c1 [Dodecylgallate] only.
Result: 5.15

Request: Please supply the value of reported pIC50 for the item CCCCCCCC(=O)OC1Cc2c(O)cc(O)cc2OC1c1cc(O)c(O)c(O)c1 (stereo not drawn)
Result: 4.14

Request: Please supply the value of reported pIC50 for the item CCCCC/C=C\C/C=C\CCCCCCCC(=O)O [Linoleic Acid, Linoleic Acid C18:2 CIS 9,12]
Result: 4.60

Request: Give reported pIC50 value for CCCCCC=CCC=CCC=CCCCCC(=O)OC1Cc2c(O)cc(O)cc2OC1c1cc(O)c(O)c(O)c1 (stereo not drawn)
Result: 4.85

Request: Give the measured pIC50 for COc1cc(C(=O)OC2Cc3c(O)cc(O)cc3OC2c2cc(O)c(O)c(O)c2)cc(OC)c1O (stereo not drawn)
Result: 4.21
